Numbers sourced from patent US20250230251A1.

TESTED ON: T1, cyIL-18Rβ-HisAvi (cynomolgus monkey)
T1 construct: Soluble analyte in SPR; also called cyno IL-18Rβ; cynomolgus monkey IL-18Rβ
T1 chain: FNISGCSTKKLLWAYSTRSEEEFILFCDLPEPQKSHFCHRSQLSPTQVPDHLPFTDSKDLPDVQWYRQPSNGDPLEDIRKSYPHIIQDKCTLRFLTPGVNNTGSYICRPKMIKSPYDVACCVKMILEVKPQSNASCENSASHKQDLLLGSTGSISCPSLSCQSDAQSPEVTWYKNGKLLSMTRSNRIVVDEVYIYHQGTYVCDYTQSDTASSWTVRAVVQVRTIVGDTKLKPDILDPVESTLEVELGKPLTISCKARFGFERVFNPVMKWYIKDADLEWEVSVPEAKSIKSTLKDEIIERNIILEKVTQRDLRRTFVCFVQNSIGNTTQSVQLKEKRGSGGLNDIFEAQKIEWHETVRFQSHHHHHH
TEST PROTOCOL: SPR T200, mAb on anti-hFc, 37C, pH 7.4
QUANTITY: koff (s⁻¹)
Entry rule: numbers only, all in s⁻¹.

Example entries begin here.
{"BINDER": "P20-V1 (antibody, human IgG1, kappa, V domains shown, Variant of P20) VH: QVQLQESGPGLVKPSETLSLTCTVSGGSINNYYWSWIRQPPGKGLEWIGYIFYSGTTNYNPSLKSRVTISVDTSKNQFSLKLSSVTAADTAVYYCARDVGIAARNSYYYVMDVWGQGTTVTVSS VL: AIQLTQSPSSLSASVGDRVTITCRASQGISSALAWYQQKPGKAPKFLIYEASSLESGVPSRFSGSGSGTDFTLTISSLQPEDFATYYCQQFNSYPITFGQGTRLEIKR", "MEASURE UNIT": "s⁻¹", "koff": 0.00028}
{"BINDER": "P21 (antibody, human IgG1, kappa, V domains shown, Human IgG) VH: QVQLQQSGPGLVKPSETLSLTCTVSGGSISNYYWTWIRQPPGKGLEWIGYISDSGSTNYNPSLKSRVTISVDTSKNQFSLKLSSVTAADTAVYYCARETIVVRGFYFYVMDVWGQGTTVTVSS VL: AIQLTQSPSSLSASVGDRVTITCRASQGISSALAWYQQRPGKAPKLLIYDASNWESGVPSRFSGSGSGTDFTLTISSLQPEDFATYYCQQFNSYPWTFGQGTKVEIKR", "MEASURE UNIT": "s⁻¹", "koff": 0.0029}
{"BINDER": "P21-V1 (antibody, human IgG1, kappa, V domains shown, Variant of P21) VH: QVQLQESGPGLVKPSETLSLTCTVSGGSISNYYWTWIRQPPGKGLEWIGYISDSGSTNYNPSLKSRVTISVDTSKNQFSLKLSSVTAADTAVYYCARETIVVRGFYFYVMDVWGQGTTVTVSS VL: AIQLTQSPSSLSASVGDRVTITCRASQGISSALAWYQQKPGKAPKLLIYEASNWESGVPSRFSGSGSGTDFTLTISSLQPEDFATYYCQQFNSYPWTFGQGTKVEIKR", "MEASURE UNIT": "s⁻¹", "koff": 0.0047}
{"BINDER": "P20-V2 (antibody, human IgG1, kappa, V domains shown, Variant of P20) VH: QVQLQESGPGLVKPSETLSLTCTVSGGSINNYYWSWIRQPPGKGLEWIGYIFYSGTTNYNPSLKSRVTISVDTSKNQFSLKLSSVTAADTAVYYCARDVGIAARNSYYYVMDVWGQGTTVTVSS VL: AIQLTQSPSSLSASVGDRVTITCRASQGISSALAWYQQKPGKAPKFLIYEGSSLESGVPSRFSGSGSGTDFTLTISSLQPEDFATYYCQQFNSYPITFGQGTRLEIKR", "MEASURE UNIT": "s⁻¹", "koff": 0.00016}

Now look at this entry.
Problem: What value of koff has been recorded for this entry: P20-V3 (antibody, human IgG1, kappa, V domains shown, Variant of P20) VH: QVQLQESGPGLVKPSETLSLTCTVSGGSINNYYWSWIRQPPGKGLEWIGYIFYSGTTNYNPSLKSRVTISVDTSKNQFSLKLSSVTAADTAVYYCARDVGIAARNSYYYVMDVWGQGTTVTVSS VL: AIQLTQSPSSLSASVGDRVTITCRASQGISSALAWYQQKPGKAPKFLIYGASSLESGVPSRFSGSGSGTDFTLTISSLQPEDFATYYCQQFNSYPITFGQGTRLEIKR
Solution: 0.0003
